This listing pairs binders with measured cGITR-His/BKG.
Target: T1, cynomolgus monkey His6-GITR (cynomolgus monkey)
T1 construct: His6-tagged recombinant protein; also called cGITR-His; cyno GITR-His
T1 chain: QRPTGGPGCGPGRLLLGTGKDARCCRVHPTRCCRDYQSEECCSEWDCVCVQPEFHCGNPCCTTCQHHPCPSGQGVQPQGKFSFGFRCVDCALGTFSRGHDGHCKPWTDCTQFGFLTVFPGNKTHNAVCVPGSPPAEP
Assay: ELISA, scFv periplasmic extract on coated His6-GITR
Report only the number, with the unit fold over background understood.

>>> data_value("GITR-Mab-44 scFv (scFv, V domains shown, scFv in periplasmic extract, V5 tag) VH: QVQLVQSGAEVKKPGASVKVSCKASGYTFTSHDIDWVRQAPGQGLEWMGWINPSGDSTSYAQKFQGRVTMTRDTSTSTVYMELSSLRSEDTAVYYCARYYGGNSYAFDIWGQGTMVTVSS VL: DIQMTQSPSSLSASVGDRVTITCRASESISPWVAWYQQKPGKAPKLLIYAASTLQSGVPSRFSGSGSGTDFTLTISSLQPEDFATYYCQQGTSTPYTFGQGTKLEIK")
12.3
>>> data_value("GITR-Mab-27 scFv (scFv, V domains shown, scFv in periplasmic extract, V5 tag) VH: QVQLVQSGAEVKKPGASVKVSCKASGYTFTSYDINWVRQAPGQGLEWIGWMNTNSGDTGYAQKFQGRVTMTRDTSTSTVYMELSSLRSEDTAVYYCARQAYSSSWYWYGWFDPWGQGTLVTVSS VL: DIQMTQSPSSLSASVGDRVTITCQASHDIDNYLNWYQQKPGKAPKLLIYAASNLQSGVPSRFSGSGSGTDFTLTISSLQPEDFATYYCQQANSFPLTFGPGTKVDIK")
1
>>> data_value("GITR-Mab-16 scFv (scFv, V domains shown, scFv in periplasmic extract, V5 tag) VH: QVQLVQSGAEVKKPGASVKVSCKASGGTLSSYAISWVRQAPGQGLEWMGWIDPNSGGTNYAQKFQGRVTMTRDTSTSTVYMELSSLRSEDTAVYYCARQGLLWFGESGSIYYYYGMDVWGQGTTVTVSS VL: DIQMTQSPSSLSASVGDRVTITCRASRSISNYLNWYQQKPGKAPKLLIYGASSLQSGVPSRFSGSGSGTDFTLTISSLQPEDFATYYCQQSYSTLVTFGQGTKVEIK")
21.6
>>> data_value("GITR-Mab-26 scFv (scFv, V domains shown, scFv in periplasmic extract, V5 tag) VH: QVQLVQSGAEVKKPGASVKVSCKASGYTFTSYGISWVRQAPGQGLEWMGWMNPNNGNTVYAQKFQGRVTMTRDTSTSTVYMELSSLRSEDTAVYYCAKDSDWYGAFDIWGQGTMVTVSS VL: DIQMTQSPSSLSASVGDRVTITCQASQSISRWLAWYQQKPGKAPKLLIYSASSLQSGVPSRFSGSGSGTDFTLTISSLQPEDFATYYCQQSYSTPWTFGQGTKLEIK")
0.8

Now consider the entry below.
Fill in reported cGITR-His/BKG for this entry: GITR-Mab-20 scFv (scFv, V domains shown, scFv in periplasmic extract, V5 tag) VH: QVQLVQSGAEVKKPGASVKVSCKASGGTFSNYAISWVRQAPGQGLEWMGVINPRGGSTTYAQKFQGRVTMTRDTSTSTVYMELSSLRSEDTAVYYCARDYSIPYYGMDVWGQGTTVTVSS VL: DIQMTQSPSSLSASVGDRVTITCRASQSISTYLNWYQQKPGKAPKLLIYDASNLETGVPSRFSGSGSGTDFTLTISSLQPEDFATYYCQQSYSTPLTFGGGTKVEIK
15.3
